Biological target: T1, C-reactive protein (human (produced in the Human Secretome …, UniProt P02741 19-224))
T1 construct: also called CRP; bCRP
T1 sequence (looked up): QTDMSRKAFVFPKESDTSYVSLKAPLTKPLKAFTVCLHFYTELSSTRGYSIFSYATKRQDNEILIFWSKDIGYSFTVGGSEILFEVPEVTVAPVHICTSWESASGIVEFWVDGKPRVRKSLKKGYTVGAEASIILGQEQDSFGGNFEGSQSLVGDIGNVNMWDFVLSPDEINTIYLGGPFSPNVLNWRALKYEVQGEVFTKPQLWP
Assay: SPR Biacore T200, target on CM5 chip, ADAPT injected, 1:1 fit
pKd: −log10 of the molar value.
Property Label: pKd

Below: 2 binders and their reported pKd.
Binder	Data Value
LRVAKSMAWHELWSYGVSDFYLRLIDKAKTVEGVEALKLHILAALP (designed binder) [ADAPT variant CRP_09]	5.96
LHYAKIMAFHELWQYGVSDFYLQLIDKAKTVEGVEALKLHILAALP (designed binder) [ADAPT variant CRP_48]	7.21

a: LSKAKAQAWHELYYYGVSDFYLSLIDKAKTVEGVEALKLHILAALP (designed binder) [ADAPT variant CRP_23]
b: LKVAKIIAFHELWEYGVSDFYLSLIDKAKTVEGVEALKLHILAALP (designed binder) [ADAPT variant CRP_38]
Which numeric pKd is bigger, that of a or that of b ? Lab log: write the label of the selected item as the result. b

Source listed as patent US20230250160A1.
